// reported IC50 for each item listed
# SUBJECT OF TEST: T1, Fibronectin receptor (human, UniProt P08648 42-1049; P05556 21-798)
# T1 construct: mature; Purified on a 110 kd fibronectin fragment column; also called Fn-R; FnR
# TEST METHOD NOTES: competitive ELISA, fibronectin coated
Starred links: 1 amine or outer side, 2 acyl side, 3 side chain; linkers in the order of their positions; H or OH if unused. Positions of bridges follow the written chain, without caps; N, C: chain ends. Non-standard residues stand in square brackets, D forms with d. Primed or numbered codes have the meaning given here. No end group written: not given here. Tyr(Me)(3) = O-methyl-tyrosine (O-Me-Tyr), COc1ccc(C[C@H](N[*:1])C(=O)[*:2])cc1; Tyr(OMe)(3) = O-methyl-tyrosine, COc1ccc(C[C@H](N[*:1])C(=O)[*:2])cc1; Cys(β,β-pentamethylene) = O=C([C@@H](N[*:1])C1(S[*:3])CCCCC1)[*:2]; dPen = CC(C)(S)[C@@H](N)C(=O)O
Enter your answer as a number in nM; do not include the unit.

Example results:
[[record]]
binder = "R[Cys(β,β-pentamethylene)]GRGDWPCR (disulfide 2-9) [R(am-Pmp)GRGDWPCR]"
observable = "IC50"
measure_unit = "nM"
numeric_readout = 50

[[record]]
binder = "T[Cys(β,β-pentamethylene)]GHRGD[Tyr(OMe)(3)]RCR (disulfide 2-10; not fully specified; printed as T(Pmc)GHRGD(O-Me-Tyr)RCR) [T(Pmc)GHRGD(O-Me-Tyr)RCR]"
observable = "IC50"
measure_unit = "nM"
numeric_readout = 10000

[[record]]
binder = "R[Cys(β,β-pentamethylene)]GRGDTPCA (disulfide 2-9) [R(AminoPmp)GRGDTPCA]"
observable = "IC50"
measure_unit = "nM"
numeric_readout = 30

[[record]]
binder = "FRGDSPDG"
observable = "IC50"
measure_unit = "nM"
numeric_readout = 2400


Query: Consider the binder VRGDSPDG . State its measured IC50.
Result: 40

Query: Consider the binder G[Cys(β,β-pentamethylene)]GHRGD[Tyr(Me)(3)]RCR (disulfide 2-10) [G(Pmc)GHRGD(O-Me-Tyr)RCR] . State its measured IC50.
Result: 10000

Query: Consider the binder R[dPen]NPRGD[Tyr(OMe)(3)]RCR (disulfide 2-10) [R(dPen)NPRGD(O-Me-Tyr)RCR] . State its measured IC50.
Result: 10000
